assay: Solubility of RPL554 salts in saline solutions, water and aqueous buffer solutions at 25° C. (HPLC); assay type: physicochemical; settings: thermodynamic from solid, deionised water, 24 hours, read-out: Solubility as RPL554 (mg/ml) in Water
Quantity name: solubility at 24 h (mg/mL)
# value in mg/mL; strip the unit string

## Task # solubility at 24 h lookup, item COc1cc2c(cc1OC)-c1c/c(=N\c3c(C)cc(C)cc3C)n(CCNC(N)=O)c(=O)n1CC2 [Benzenesulfonate, RPL554 benzenesulfonate]
## Result 2.57

====

Assay: Solubility of RPL554 salts in saline solutions, water and aqueous buffer solutions at 25° C. (HPLC)
Assay type: physicochemical
Conditions: phosphate buffer in 0.9% w/w saline, pH 3.5, aqueous buffer, thermodynamic from solid, in saline 0.9% w/w, read-out: Solubility as RPL554 (mg/ml) in buffer solution pH 3.5, Phosphate
Description: The behaviour of salts of RPL554 were examined under the following conditions: • Phosphate buffered to pH 3.5 in saline, 0.9% w/w at 25° C. • Acetate buffered to pH 4.5 in saline, 0.9% w/w at 25° C. • Citro-Phosphate buffered to pH 4.5 in saline, 0.9% w/w at 25° C. • Phosphate buffered to pH 6.5 in saline, 0.9% w/w at 25° C. • Saline, 0.7, 0.9 and 1.1% w/w at 25° C. • Deionised water at 25° C. […]
Quantity name: solubility at 24 h

## Task # solubility at 24 h lookup, item COc1cc2c(cc1OC)-c1c/c(=N\c3c(C)cc(C)cc3C)n(CCNC(N)=O)c(=O)n1CC2 [Benzenesulfonate, RPL554 benzenesulfonate]
## Result 1.1 mg/mL
